# credit: paper PMC6061410

- Method Notes: Effect of food intake
- Type: in vivo, human
- Condition Context: human, plasma, oral, 25 mg, Cmax at steady state, healthy young subjects, fasted, gMean
Property Measured: Cmax (nM)
Note: unit nM is implicit; provide only the numeric part.

For the compound shown here, `C[C@@H](Oc1ccc(S(C)(=O)=O)cc1C(=O)N1C[C@@H]2C[C@]2(c2cc(C(F)(F)F)on2)C1)C(F)(F)F` , give the reported Cmax.
574

* * *

- Method Notes: Pharmacokinetics after single and multiple doses, part 1
- Assay type: in vivo, human
- Condition Context: human, plasma, oral, 10 mg, Cmax, young, 10 mg QD, single dose, gMean (%CV)
Property Measured: Cmax (nM)
Numbers only here, please. The scale is nM.

May I ask what Cmax has been recorded for C[C@@H](Oc1ccc(S(C)(=O)=O)cc1C(=O)N1C[C@@H]2C[C@]2(c2cc(C(F)(F)F)on2)C1)C(F)(F)F [BI 425809] ?
109

* * *

- Method Notes: Pharmacokinetics after single and multiple doses, part 1
- Type: in vivo, human
- Condition Context: human, plasma, oral, 50 mg, AUCτ,ss, elderly, 50 mg QD, multiple dose, gMean (%CV)
Property Measured: AUC
Please answer using a numeric value trailed by its unit.

Which AUC is listed for `C[C@@H](Oc1ccc(S(C)(=O)=O)cc1C(=O)N1C[C@@H]2C[C@]2(c2cc(C(F)(F)F)on2)C1)C(F)(F)F` ?
13.9 µM·h

* * *

- Method Notes: Pharmacokinetics after single and multiple doses, part 1
- Assay type: in vivo, human
- Condition Context: human, plasma, oral, 25 mg, AUCτ,ss, elderly, 25 mg QD, multiple dose, gMean (%CV)
Property Measured: AUC (µM·h)
The answer is to be given in µM·h; state only the numeric part.

# get_value(readout='AUC', item= `C[C@@H](Oc1ccc(S(C)(=O)=O)cc1C(=O)N1C[C@@H]2C[C@]2(c2cc(C(F)(F)F)on2)C1)C(F)(F)F` )
11

* * *

- Method Notes: Effect of food intake
- Assay type: in vivo, human
- Condition Context: human, plasma, oral, 25 mg, Cmax at steady state, healthy young subjects, fed (light fed), gMean
Property Measured: Cmax (nM)
Report the figure in nM without appending any unit label.

What value of measured Cmax is listed for `C[C@@H](Oc1ccc(S(C)(=O)=O)cc1C(=O)N1C[C@@H]2C[C@]2(c2cc(C(F)(F)F)on2)C1)C(F)(F)F` ?
707

* * *

- Method Notes: Pharmacokinetics after single and multiple doses, part 1
- Format: in vivo, human
- Condition Context: human, plasma, oral, 50 mg, Cmax,ss, elderly, 50 mg QD, multiple dose, gMean (%CV)
Property Measured: Cmax (nM)
Report only the number, with the unit nM understood.

Give the measured Cmax of `C[C@@H](Oc1ccc(S(C)(=O)=O)cc1C(=O)N1C[C@@H]2C[C@]2(c2cc(C(F)(F)F)on2)C1)C(F)(F)F` .
802

* * *

- Method Notes: Pharmacokinetics after single and multiple doses, part 1
- Assay type: in vivo, human
- Condition Context: human, plasma, oral, 25 mg, tmax, young, 25 mg QD, single dose, median and range (minimum, maximum)
Property Measured: Tmax (h)
Report only the number, with the unit h understood.

Given the entry `C[C@@H](Oc1ccc(S(C)(=O)=O)cc1C(=O)N1C[C@@H]2C[C@]2(c2cc(C(F)(F)F)on2)C1)C(F)(F)F` , report its measured Tmax.
4.5
